Tested on: KM12 colon
Assay: NCI-60 one-dose screen, 48 h (100 = growth as untreated, 0 = no growth, -100 = all killed)
Details: 10 µM unless noted
About 83,000 compounds went through this panel and 20% of them were active in at least one assay; those are over-represented in the sample as a whole. The source made the active and inactive calls. The calls were made as follows: active = growth percent below 10; inactive = the rest.
assay endpoint: growth

> print(dat)
                                   molecule            result
1      COc1ccc(-c2nc3c(N)c(CO)c(C)nc3o2)cc1  96.5% (inactive)
2  N#C/C(=C/C=C/c1cccc(Cl)c1)S(=O)c1ccccc1 (centres undefined)   -47.7% (active)
3  Cc1ccc(/C=C/c2c(C(=O)/C=C/c3ccc(C(F)(F)F)cc3)c(C)nc3ccccc23)cc1     -70% (active)
4  CCCCCCN(CCCCCC)c1ccc(/C=C2/SC(=O)N(c3nc(N4CCCC4)nc(N4CCCC4)n3)C2=O)c(C)c1  52.9% (inactive)
